Just for reference, patent US12227517B2 is where these values come from.

# TARGET_OR_TEST_SYSTEM: human recombinant DGK ξ (Homo sapiens (Human))
# Sequence (Q13574 whole entry): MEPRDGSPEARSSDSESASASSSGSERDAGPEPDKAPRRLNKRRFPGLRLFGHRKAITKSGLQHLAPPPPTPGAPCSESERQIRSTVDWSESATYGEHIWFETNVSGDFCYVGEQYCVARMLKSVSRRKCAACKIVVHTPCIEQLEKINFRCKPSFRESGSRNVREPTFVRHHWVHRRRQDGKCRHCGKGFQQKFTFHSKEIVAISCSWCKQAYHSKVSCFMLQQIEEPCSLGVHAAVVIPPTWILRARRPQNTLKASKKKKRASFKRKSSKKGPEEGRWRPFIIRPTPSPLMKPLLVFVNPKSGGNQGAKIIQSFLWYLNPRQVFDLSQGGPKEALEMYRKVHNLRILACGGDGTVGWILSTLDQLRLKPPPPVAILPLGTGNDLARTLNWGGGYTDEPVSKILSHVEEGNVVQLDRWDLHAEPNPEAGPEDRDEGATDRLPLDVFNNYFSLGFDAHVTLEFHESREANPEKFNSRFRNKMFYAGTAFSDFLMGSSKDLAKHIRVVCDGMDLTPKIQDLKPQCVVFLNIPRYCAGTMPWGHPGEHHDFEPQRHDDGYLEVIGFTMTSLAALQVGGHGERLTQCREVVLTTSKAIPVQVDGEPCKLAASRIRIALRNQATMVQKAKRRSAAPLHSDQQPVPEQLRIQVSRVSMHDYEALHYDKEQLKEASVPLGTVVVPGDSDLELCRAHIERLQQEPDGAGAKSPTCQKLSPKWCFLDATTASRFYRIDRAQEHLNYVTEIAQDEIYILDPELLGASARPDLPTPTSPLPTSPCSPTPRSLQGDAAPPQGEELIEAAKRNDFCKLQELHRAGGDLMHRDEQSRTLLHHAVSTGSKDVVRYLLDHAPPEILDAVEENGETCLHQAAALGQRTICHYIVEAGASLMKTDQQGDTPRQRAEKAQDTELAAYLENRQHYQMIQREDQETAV
# PROCEDURE_SUMMARY: Evaluation of DGK ξ inhibitory effect (ADP-Glo Kinase Assay)
QUANTITY: pIC50
Give only the number. pIC50 is defined as minus log10 of concentration in molar units.

>>> measured_result("CN(C)[C@@H]1CCN2CCN(c3c(NC(=O)c4csc(-c5ccnnc5)n4)ccc(OC4CC4)c3C(F)(F)F)C[C@@H]12 [Example 82]")
8.52
>>> measured_result("NC[C@@H]1CCCN(c2c(NC(=O)c3csc(-c4ccnnc4)n3)ccc(Oc3ccc(F)cc3)c2C(F)(F)F)C1 [Example 41]")
7.96
>>> measured_result("N[C@H]1CCN2CCN(c3c(NC(=O)c4csc(-c5ccnnc5)n4)ccc(Oc4ccccc4)c3C(F)(F)F)C[C@H]12 [Example 75]")
8.22

Could you now consider this next molecule?
Answer with reported pIC50 of NC[C@@H]1CCCN(c2c(NC(=O)c3csc(-c4ccnnc4)n3)ccc(Oc3cccc(F)c3)c2C(F)(F)F)C1 [Example 11]
7.72
